Entry source: patent US20110105389A1

assaySummary: Pharmacokinetic analysis (intravenous and oral), Method B9
Type: in vivo
assayConditions: Table 10b; 2 mg/mL intravenous and 8 mg/mL oral typically employed
measuredParameter: % F (%)

CCC1CCc2ccc(F)cc2OC(C)CNC(C2(C)CC2)C(=O)N(C)C(C(C)O)C(=O)NC(Cc2ccccc2)C(=O)N1 (stereo not shown) [Compound 1705]
50
CC(O)[C@H]1C(=O)N[C@H](Cc2c[nH]c3ccccc23)C(=O)N[C@H](C)C#Cc2ccccc2OCCN[C@@H](C2(C)CC2)C(=O)N1C (stereo partly shown) [Compound 1713]
14
CC[C@@H]1CCc2ccc(F)cc2OCCN[C@@H](C(C)C)C(=O)N(C)[C@@H](C(C)O)C(=O)N[C@H](Cc2ccc(O)cc2)C(=O)N1 (stereo partly shown) [Compound 1751]
34
CC[C@@H]1C#Cc2ccccc2O[C@H](C)CN[C@@H](C2(C)CC2)C(=O)N(C)[C@@H](C(C)O)C(=O)N[C@H](Cc2c[nH]c3ccccc23)C(=O)N1 (stereo partly shown) [Compound 1718]
17
CC[C@@H]1C#Cc2c(F)cccc2OCCN[C@@H](C(C)C)C(=O)N(C)[C@@H](C(C)O)C(=O)N[C@H](Cc2c[nH]c3ccccc23)C(=O)N1 (stereo partly shown) [Compound 1726]
14
CC[C@@H]1C#Cc2ccc(F)cc2OCCN[C@@H](C(C)C)C(=O)N(C)[C@@H](C(C)O)C(=O)N[C@H](Cc2c[nH]c3ccccc23)C(=O)N1 (stereo partly shown) [Compound 1755]
7
CC[C@@H]1CCc2ccc(F)cc2OCCN[C@@H](C2(C)CC2)C(=O)N(C)[C@@H](C(C)O)C(=O)N[C@H](Cc2ccccc2)C(=O)N1 (stereo partly shown) [Compound 1746]
59
CC[C@@H]1C#Cc2ccccc2OCCN[C@@H](C(C)C)C(=O)N(C)[C@@H](C(C)O)C(=O)N[C@H](Cc2c[nH]c3ccccc23)C(=O)N1 (stereo partly shown) [Compound 1754]
39
CCC1CCc2ccc(F)cc2OCCNC(C2(C)CC2)C(=O)N(C)C(C(C)O)C(=O)NC(Cc2c[nH]c3ccccc23)C(=O)N1 (stereo not shown) [Compound 1703]
12
CC(C)C1NCCOc2cc(F)ccc2C#CCNC(=O)C(Cc2c[nH]c3ccccc23)NC(=O)C(C(C)O)N(C)C1=O (stereo not shown) [Compound 1693]
5

###

HLM, metabolic stability in human liver microsomes values for the molecules below.
assaySummary: Metabolic stability in human liver microsomes, Method B8
Assay type: in vitro ADME
assayConditions: human liver microsomes 0.8 mg/mL, 5 μM compound, 37° C.
measuredParameter: HLM, metabolic stability in human liver microsomes (μL/min/mg protein)

CC(O)[C@H]1C(=O)N[C@H](Cc2ccccc2)C(=O)NCC#Cc2ccccc2OCCN[C@@H](C2(C)CC2)C(=O)N1C (stereo partly shown)
34.7
CCC(C)C1NCCOc2ccccc2C#CCNC(=O)C(Cc2ccc(Cl)cc2)NC(=O)C(C(C)O)N(C)C1=O (stereo not shown)
33.5
CC(C)[C@@H]1NCCOc2ccccc2C#C[C@@H](C)NC(=O)[C@@H](Cc2ccccc2)NC(=O)[C@H](C(C)O)N(C)C1=O (stereo partly shown)
41.4
CC[C@@H]1C#Cc2ccc(F)cc2OCCN[C@@H](C(C)C)C(=O)N(C)[C@@H](C(C)O)C(=O)N[C@H](Cc2ccccc2)C(=O)N1 (stereo partly shown)
40.6
CC(C)C1NCCOc2cc(F)ccc2C=CCNC(=O)C(Cc2ccccc2)NC(=O)C(C(C)O)N(C)C1=O (stereo not shown)
14.1
CC(C)C1NCCOc2ccccc2C#CCNC(=O)C(Cc2c[nH]c3ccccc23)NC(=O)C(C(C)O)N(C)C1=O (stereo not shown)
121
CC(C)[C@@H]1NCCOc2ccccc2C2CCC(C2)NC(=O)[C@@H](Cc2ccccc2)NC(=O)[C@H](C(C)O)N(C)C1=O (stereo partly shown)
60.7
CC(C)[C@@H]1NCCOc2ccccc2/C=C/CNC(=O)[C@@H](Cc2ccccc2)NC(=O)[C@H](C(C)O)N(C)C1=O (stereo partly shown)
26.5
CC[C@@H]1C#Cc2ccccc2O[C@H](C)CN[C@@H](C2(C)CC2)C(=O)N(C)[C@@H](C(C)O)C(=O)N[C@H](Cc2c[nH]c3ccccc23)C(=O)N1 (stereo partly shown)
43.6
CC(C)[C@@H]1NCCOc2cccc(F)c2CCCNC(=O)[C@@H](Cc2ccccc2)NC(=O)[C@H](C(C)O)N(C)C1=O (stereo partly shown)
42.9
CC[C@@H]1CCc2c(F)cccc2OCCN[C@@H](C(C)C)C(=O)N(C)[C@@H](C(C)O)C(=O)N[C@H](Cc2ccc(F)cc2)C(=O)N1 (stereo partly shown)
64.3
CC(C)[C@@H]1NCCOc2ccccc2C[C@H](O)[C@@H](C)NC(=O)[C@@H](Cc2cccc(F)c2)NC(=O)[C@H](C(C)O)N(C)C1=O (stereo partly shown)
20.9
Cc1cccc(C[C@H]2NC(=O)[C@H](C(C)O)N(C)C(=O)[C@H](C(C)C)NCCOc3cc(F)ccc3CC[C@@H](C)NC2=O)c1 (stereo partly shown)
10.4

###

testSystem: human ghrelin receptor (GRLN, growth hormone secretagogue receptor, hGHS-R1a) (Homo sapiens)
Construct: purchased PerkinElmer BioSignal #RBHGHSM, lot#1887; host or cells: HEK-293 cells, stably transfected (membranes)
Sequence (Q92847 whole entry): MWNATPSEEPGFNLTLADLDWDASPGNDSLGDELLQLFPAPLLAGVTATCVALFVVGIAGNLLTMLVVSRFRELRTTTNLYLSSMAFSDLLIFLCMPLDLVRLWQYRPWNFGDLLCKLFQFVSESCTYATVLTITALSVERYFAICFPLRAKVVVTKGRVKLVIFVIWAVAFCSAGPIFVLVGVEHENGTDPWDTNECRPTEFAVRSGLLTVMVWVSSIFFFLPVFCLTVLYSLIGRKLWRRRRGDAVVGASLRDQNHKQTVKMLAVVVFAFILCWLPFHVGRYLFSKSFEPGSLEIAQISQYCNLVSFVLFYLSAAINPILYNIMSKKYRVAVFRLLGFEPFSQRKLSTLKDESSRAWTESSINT
assaySummary: Competitive radioligand binding assay (ghrelin receptor), Method B1
assayConditions: Ghrelin receptor binding activity, Method B1
measuredParameter: Ki

CCC(C)[C@@H]1NCCOc2ccccc2/C=C/CNC(=O)[C@@H](Cc2ccncc2)NC(=O)[C@H](C(C)O)N(C)C1=O (stereo partly drawn)
10 to 100 nM
CC(O)[C@H]1C(=O)N[C@H](Cc2ccccc2)C(=O)N[C@@H](C)CCc2ccccc2OCCN[C@@H](C2CC2)C(=O)N1C (stereo partly drawn)
10 to 100 nM
CCC(C)[C@H]1C(=O)N(C)[C@@H](C(C)O)C(=O)N[C@H](Cc2ccccc2)C(=O)NC/C=C/c2ccccc2OCCN1C (stereo partly drawn)
10 to 100 nM

###

testSystem: human ghrelin receptor (GRLN, growth hormone secretagogue receptor, hGHS-R1a) (Homo sapiens)
Construct: purchased PerkinElmer BioSignal #RBHGHSM, lot#1887; host or cells: HEK-293 cells, stably transfected (membranes)
assaySummary: Competitive radioligand binding assay (ghrelin receptor), Method B1
assayConditions: Ghrelin receptor binding activity, Method B1
Protocol: Multiscreen Harvest plates-GF/C (Millipore, #MAHFC1H60) • 4. […] Bottom seal (Millipore, #MATAH0P00) • 7. […] Binding Buffer: 25 mM Hepes (pH 7.4), 1 mM CaCl2, 5 mM MgCl2. 2.5 mM EDTA, 0.4% BSA […] Plates were sealed with TopSeal-A, vortexed gently and incubated at rt for 30 min. […] Plates were than sealed with TopSeal-A and counted for 30 sec per well on a TopCount Microplate Scintillation and Luminescence Counter (PerkinElmer) using a count delay of 60 sec. Results were expressed as counts per minute (cpm). […]
measuredParameter: IC50

CCC(C)[C@@H]1NC[C@@H](C)Oc2ccccc2/C=C/CNC(=O)[C@@H](Cc2ccccc2)NC(=O)[C@H](C(C)O)N(C)C1=O (stereo partly shown)
10 to 100 nM
CCC1CCc2ccc(F)cc2OC(C)CNC(C2(C)CC2)C(=O)N(C)C(C(C)O)C(=O)NC(Cc2c[nH]c3ccccc23)C(=O)N1 (stereo not shown)
100 to 500 nM
CC[C@@H]1CCc2c(C#N)cccc2OCCN[C@@H](C(C)C)C(=O)N(C)[C@@H](C(C)O)C(=O)N[C@H](Cc2ccc(F)cc2)C(=O)N1 (stereo partly shown)
100 to 500 nM
CCC1CCc2ccc(F)cc2OCCNC(C(C)C)C(=O)N(C)C(C(C)O)C(=O)NC(Cc2ccco2)C(=O)N1 (stereo not shown)
10 to 100 nM
CCC1CCc2ccc(Cl)cc2OCCNC(C(C)C)C(=O)N(C)C(C(C)O)C(=O)NC(Cc2ccccc2)C(=O)N1 (stereo not shown)
100 to 500 nM
CC[C@@H]1CCc2ccccc2O[C@H](C)CN[C@@H](C2(C)CC2)C(=O)N(C)[C@@H](C(C)O)C(=O)N[C@H](Cc2c[nH]c3ccccc23)C(=O)N1 (stereo partly shown)
10 to 100 nM
CC(C)C1NCCOc2cc(F)ccc2C=CCNC(=O)C(Cc2ccc(F)cc2)NC(=O)C(C(C)O)N(C)C1=O (stereo not shown)
1 to 10 nM
CC(O)[C@H]1C(=O)N[C@H](Cc2ccc(Cl)cc2)C(=O)NC/C=C/c2ccccc2OCCN[C@@H](C2(C)CC2)C(=O)N1C (stereo partly shown)
1 to 10 nM
CCC(C)[C@@H]1NCCOc2ccccc2/C=C/CNC(=O)[C@@H](Cc2ccccc2F)NC(=O)[C@H](C(C)O)N(C)C1=O (stereo partly shown)
10 to 100 nM
CC(O)[C@H]1C(=O)N[C@H](Cc2ccc(Cl)cc2)C(=O)N[C@H](C)CCc2ccc(F)cc2O[C@H](C)CN[C@@H](C2(C)CC2)C(=O)N1C (stereo partly shown)
10 to 100 nM
CCC(C)C1NCCOc2ccccc2CC(C)CNC(=O)C(Cc2ccccc2)NC(=O)C(C(C)O)N(C)C1=O (mixture of isomers)
10 to 100 nM
CCC(C)[C@@H]1NCCOc2ccccc2/C=C/CNC(=O)[C@@H](Cc2cccs2)NC(=O)[C@H](C(C)O)N(C)C1=O (stereo partly shown)
100 to 500 nM
CC[C@@H]1CCc2c(C#N)cccc2OCCN[C@@H](C(C)C)C(=O)N(C)[C@@H](C(C)O)C(=O)N[C@H](Cc2c[nH]c3ccccc23)C(=O)N1 (stereo partly shown)
100 to 500 nM
CC(O)[C@H]1C(=O)N[C@H](Cc2ccc(Cl)cc2)C(=O)NC/C=C/c2ccccc2OCCN[C@@H](CC(C)(C)C)C(=O)N1C (stereo partly shown)
100 to 500 nM
CC(C)C1NCCOc2ccccc2C#CCNC(=O)C(Cc2c[nH]c3ccccc23)NC(=O)C(C(C)O)N(C)C1=O (stereo not shown)
1 to 10 nM
CCC1CCc2ccc(F)cc2OCCNC(CC)C(=O)N(C)C(C(C)O)C(=O)NC(Cc2ccccc2)C(=O)N1 (stereo not shown)
100 to 500 nM
CCC(C)C1NCCOc2ccccc2C=CCNC(=O)C(Cc2ccccc2Cl)NC(=O)C(C(C)O)N(C)C1=O (stereo not shown)
1 to 10 nM
CC(O)[C@H]1C(=O)N[C@H](Cc2ccc(Cl)cc2)C(=O)N[C@H](C)CCc2ccccc2OCCN[C@@H](C(C)(C)C)C(=O)N1C (stereo partly shown)
10 to 100 nM
Cc1ccc2[nH]cc(CC3NC(=O)C(C(C)O)N(C)C(=O)C(C(C)C)NCCOc4ccccc4CCC(C)NC3=O)c2c1 (stereo not shown)
1 to 10 nM
CC(O)[C@H]1C(=O)N[C@H](Cc2ccc3ccccc3c2)C(=O)NCCCc2cccnc2OCCN[C@@H](C2(C)CC2)C(=O)N1C (stereo partly shown)
1 to 10 nM
CCC(C)[C@@H]1NCCOc2ccccc2/C=C/CNC(=O)[C@@H](Cc2ccc(N)cc2)NC(=O)[C@H](C(C)O)N(C)C1=O (stereo partly shown)
100 to 500 nM
CC[C@@H]1CCc2ccc(F)cc2OCCN[C@@H](C(C)C)C(=O)N(C)[C@@H](C(C)O)C(=O)N[C@H](Cc2ccc(O)cc2)C(=O)N1 (stereo partly shown)
1 to 10 nM
CC(=O)OC(C)C1C(=O)NC(Cc2ccccc2)C(=O)NCC=Cc2ccccc2OCCNC(C(C)C)C(=O)N1C (stereo not shown)
> 500 nM
CCCC1CCc2ccccc2OCCNC(C(C)C)C(=O)N(C)C(C(C)O)C(=O)NC(Cc2ccccc2)C(=O)N1 (stereo not shown)
> 500 nM
CCC(C)C1NCCOc2ccccc2C=CCNC(=O)C(Cc2ccccc2OC)NC(=O)C(C(C)O)N(C)C1=O (stereo not shown)
1 to 10 nM
